// values below are reported Kd
protocol.summary: Binding affinity at arabidopsis recombinant allene oxide synthase
The reply should be a number in µM, with the unit left off.

- compound.structure.string: "CCCCCCCOC(=O)CCCCCCCO[C@@H](Cn1ccnc1)c1ccc(Cl)cc1Cl"
  Kd, µM: 1.4

Turning now to a further compound:
**Q:** Report Kd for CCCCCCCOC(=O)CCCCCCCO[C@H](Cn1ccnc1)c1ccc(Cl)cc1Cl please.
**A:** 4.8

Source: ChEMBL document CHEMBL1142282
